Recorded measurements of Kd, one per entry
Biological target: T1, cynomolgus sclerostin (cynomolgus monkey)
T1 chain: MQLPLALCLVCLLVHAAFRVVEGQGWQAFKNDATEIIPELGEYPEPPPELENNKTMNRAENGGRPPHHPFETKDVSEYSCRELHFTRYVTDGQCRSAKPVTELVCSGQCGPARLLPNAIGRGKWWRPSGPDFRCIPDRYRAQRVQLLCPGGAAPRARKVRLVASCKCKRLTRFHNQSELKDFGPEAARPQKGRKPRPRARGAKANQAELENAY
Assay: SPR, pH 7.4, 37C
// note: answer is a bare numeric in nM

{"columns": ["Binder", "Kd [nM]"],
 "data": [
  ["mabA_pH2 (antibody, V domains shown) VH: EVQLVQSGAEVKKPGASVKVSCKASGYTFTDYNMHWVRQAPGQGLEWMGEINPNSGHAGYNQKFKGRVTMTTDTSTSTAYMELRSLRSDDTAVYYCARLHYDHIYDDWYFDVWGQGTTVTVSS VL: DIQMTQSPSSLSASVGDRVTITCRASHDISNYLNWYQQKPGKAPKLLIYYTSRLLSGVPSRFSGSGSGTDFTLTISSLQPEDFATYYCQQGDTLPYTFGGGTKVEIK", 0.252]
]}

Exercise: Indicate the recorded Kd value for this binder: mabA_NpH2 (antibody, V domains shown) VH: EVQLVQSGAEVKKPGASVKVSCKASGYTFTDYNMHWVRQAPGQGLEWMGEINPNSGGAGYNQKFKGRVTMTTDTSTSTAYMELRSLRSDDTAVYYCARLGYDDIYDDWYFDVWGQGTTVTVSS VL: DIQMTQSPSSLSASVGDRVTITCRASQDISNYLNWYQQKPGKAPKLLIYHTSRLLSGVPSRFSGSGSGTDFTLTISSLQPEDFATYYCQQGDTLPYTFGGGTKVEIK
Solution: 0.28

The measurements presented in this section are drawn from patent US11608374.
